- Test system: Plasmodium berghei
- Experimental details: Screen against P. berghei liver stage (PbLuc), transformed with Luciferase, at 10uM
- Type: functional, HepG2
- Conditions used: tested at 10 uM
Out of some 69,000 compounds screened, about 8,600 (12%) showed an effect of 50% or more. Shown is part of a subset that was picked to be rich in strong results.

Smiles representation: Cn1cnc(S(=O)(=O)NCCCN2CCCC2=O)c1Cl
Result unit: %
INHIBITION: 4.71
--
Smiles representation: Cc1ccc(NCc2ncc(C(C)(C)C)o2)c(Cl)c1
Result unit: %
INHIBITION: -26.2
--
Smiles representation: Cc1cccc(CN2CCn3c(C(=O)N(C)C)cnc3C2)c1
Result unit: %
INHIBITION: 50.9
--
Smiles representation: CC(C)(C)c1cnc(CNc2cccc(Cn3cnnc3)c2)o1
Result unit: %
INHIBITION: -17.6
--
Smiles representation: Cc1cccc(CN(Cc2ccccn2)S(=O)(=O)N(C)C)c1
Result unit: %
INHIBITION: -1.38
--
Smiles representation: Cc1cc(=O)[nH]c(-n2nc(C)c(CCC(=O)Nc3nc(C)cs3)c2C)n1
Result unit: %
INHIBITION: 68.2
--
Smiles representation: Cc1cccc(CN(Cc2ccccn2)Cc2ncc(C(C)(C)C)o2)c1
Result unit: %
INHIBITION: 71.5
